Molecular target: Sut1 (UniProt P53032)
Sequence: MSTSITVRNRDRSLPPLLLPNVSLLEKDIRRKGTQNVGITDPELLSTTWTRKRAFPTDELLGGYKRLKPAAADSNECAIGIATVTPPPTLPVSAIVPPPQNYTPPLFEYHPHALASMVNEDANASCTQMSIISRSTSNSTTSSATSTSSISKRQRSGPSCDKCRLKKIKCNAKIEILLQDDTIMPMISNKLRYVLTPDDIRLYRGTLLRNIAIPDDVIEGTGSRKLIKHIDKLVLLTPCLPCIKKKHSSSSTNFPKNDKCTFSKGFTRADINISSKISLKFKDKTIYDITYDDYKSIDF
Assay: PBM E-score (8-mer binding enrichment) (E-score (-0.5 to 0.5)); higher = stronger / more preferred TF binding
Settings: protein concentration: 200 nM; construct: GST-full length
Whole data set: some 33,000 sequences, median “E-score (-0.5 to 0.5)” near -0.017, cut for the highest 2% near 0.3. Shown is part of a subset that was picked to be rich in the highest values.
We use 0.1 as the dividing line for PBM E-score: on or above the line is label 1, below is label 0.

# constructSequence, discreteLabel
rows = [
    ("AGGAGTAG", "label 0"),
    ("GGTCCGCA", "label 1"),
    ("GCTTCCGA", "label 1"),
    ("AGAGTTAC", "label 0"),
    ("CTATTGGC", "label 0"),
    ("TCTCTAAA", "label 1"),
    ("GGAGTTAA", "label 1"),
    ("CTATCAAC", "label 1"),
    ("CGGAGTAC", "label 1"),
    ("GAGCTATC", "label 0"),
    ("CGACACTC", "label 0"),
    ("CTAGCCTC", "label 0"),
    ("ATCTGAGC", "label 1"),
    ("GACGGTCA", "label 0"),
    ("ACGGAGGC", "label 0"),
    ("ACAAGTCC", "label 1"),
    ("CAGGAGTA", "label 0"),
    ("TCGATCAA", "label 0"),
    ("ATTAGATA", "label 1"),
    ("ACAAGTCA", "label 0"),
    ("AGCCTACG", "label 0"),
    ("CTCCGCAC", "label 1"),
    ("ACTACTCT", "label 0"),
    ("CGAGTTAC", "label 0"),
    ("AGGAGTAA", "label 0"),
    ("AATCCGCG", "label 0"),
    ("ATCCGCAG", "label 0"),
    ("AACGGATA", "label 1"),
    ("AACACTAT", "label 1"),
    ("TAGAAGCA", "label 0"),
    ("GACCCGTC", "label 0"),
    ("CGGAGTAA", "label 1"),
    ("ATGCTAGA", "label 0"),
    ("CCGGAGTA", "label 1"),
    ("GTTTCCAA", "label 0"),
    ("AAGAGCGG", "label 0"),
    ("GTCCGCAC", "label 1"),
    ("ATAAGTTC", "label 1"),
    ("CCGAGTAG", "label 1"),
    ("ACACTGGT", "label 0"),
    ("ATTAGATC", "label 0"),
    ("AATTCTGG", "label 0"),
    ("CTCCGCAA", "label 1"),
    ("AGTCCGCA", "label 1"),
    ("AACGGAGA", "label 1"),
    ("AGGAGTAC", "label 0"),
]
